Assay: yeast display, Sf9 membrane polyspecificity reagent, FACS + sequencing; frameworks hold sequencing errors
observable: polyreactivity (PSR sort gate)

Sample records with polyreactivity (PSR sort gate):
QVQLVESGGGLVQAGGSLRLSCAASGFTFRYYAMGWYRQAPGKERELVAAISARGTSTYYADSVKGRFTISRDNAKITVYLQMNSLKPEDTAVYYCAARYGLYPARGYDYWGQGTQVSVSS ... high polyreactivity
QVQLVESGGGLVQAGGSLRLSCAASGRNFNVKAMGWYIQAPGKESELVAGITRGGITTYADSVKGRFTISRDNAKNSVYLQMYSLKPVDTAVYYCAAVGWGSRYDTWYYLYDYWGQGSQVTVSS ... high polyreactivity
QVQLVETGGGLVQAGGSLRLSCAASGRIFHLYAMGWYRQAPGKERELVAAITFSGGSTYYADSVKGRFTISRDTAKNTVYLQMNSLKPEDTAVYYCAKRSFYWFSSRLPFKYDYWGQGTQVTVSS ... low polyreactivity
QVQLVESGGGLVQAGGSLRLSCAASGITLINYAMGWYRQAPGKERELVAAISTSGSSTYYADSVKGRFTISRDNAKNTVYLQMNSLKQEDTAVYYCNAEGQPLYVSWHDHRYIYGFDYWGQGTQVTVSS ... low polyreactivity

Q: If you can, please state the reported polyreactivity (PSR sort gate) value of QVQLEESGGGLVQAGGNLRLSSAASGSIFSFNAMGCYRQAPGKERELVAAISWRGASTYYADSVKGRFTISRDNAKNTVYLQMNSLKPEDTAVYYCAAESTFILQYSYIYYDGHYDYCGQGTQVTVSS .
Ans: low polyreactivity

* * *

Test: yeast display, Sf9 membrane polyspecificity reagent, FACS + sequencing; frameworks hold sequencing errors
observable: polyreactivity (PSR sort gate)

Sample records with polyreactivity (PSR sort gate):
QVQLVESGGGLVQAGGSLRLSCAASGRISGVNAMGWYRQAPGKERELVATISGSGGRTYYADSVKGRFTISRDNAKNTVYLQMNSLKPEDTAVYYCAAGPPRADYDYWGQGTQVTVSS ... low polyreactivity
QVQLVESGGGLVQAGGSLRLSCAASGSIFGGYAMGWYRQAPGKERELVARIRVSGGRTYYADSVKGRFTISRDNAKNTVYLQMISLKPEDTAVYYCAVDRYWWLDGYDYWGQGTQVTVSS ... high polyreactivity
QVQLVESGGGLVQAGGSLRLSCAASGRTFFPYGMGWYRQAPGKERELVASISYSGGITYYADSVKGRFTISRDNAKNTVYLQMNSLKPEDTAVYYCSVRTIWRFRYDYWGQGTQVTVSS ... high polyreactivity
QVQLVESGGGLVQAGGSLRLSCAASGRIFYLYAMGWYRQAPGKERELVARITSGSGTYYADSVKGRFTISRDNAKNTVYLQMNSLKPEDTAVYYCAAREPGVGYVGHYTGLDYWGQGTQVTVSS ... low polyreactivity

Consider the additional sequence presented here.
Q: If you can, please state the reported polyreactivity (PSR sort gate) value of QVQLVESGGGLVQAGGSLRLSSAASGSIIQSNAIGGYRQAPGTERELVAAISYRGSRTYYADSVKGRFTISRDNAKNTVYIQMNSLKPDDTAVYYCAAVYRTYGIGPNNYWGQGTQVTVSS .
Ans: high polyreactivity

* * *

Test: yeast display, Sf9 membrane polyspecificity reagent, FACS + sequencing; frameworks hold sequencing errors
observable: polyreactivity (PSR sort gate)

QVQLVESGGGLVQAGGSLRLSCAASGSIFERYAMGWYRQAPGKERELVAGISTDGSTYADSVKGRFTISRDNAKNTVYLQMNSLKPEDTAVYYCNKRRGFSAWYDYWGQGTQVTVSS ... low polyreactivity
QVQLVESGGGLVQAGGILRLSCAASGNIFPINAMGWYRQAPGKEREFVAAITRSGSRTYYADSVKGRFTISRDNAKNTVYLQMNSLKKEDTAVYYCADRGNSTPVYSRYGYWGQGTQVTVSS ... low polyreactivity

* * *

Test: yeast display, Sf9 membrane polyspecificity reagent, FACS + sequencing; frameworks hold sequencing errors
observable: polyreactivity (PSR sort gate)

QVQLVETGVGLVQAGGSLRLSCAASGRTFTTYAMGWYRQAPGKERELVAAITGSGGSTYYADSVNGRFTISRDNAKNTVYLQMNSLKPEDTAVYDCAKGYHQYAGFYYWGQGTQVTVSS ... high polyreactivity
QVQLVESGGGLVQAGGSLRLSCAASGNIFAWYAMGWYRQAPGKERELVADISSRGGSSYYADSVKGRFTISRDTAKNTVYLQMNSLKPEDTAVYYCAAVWYWTQDYDYWGQGTQVTVSS ... low polyreactivity
QVQLVESGGGLVQAGGSLRLSCAASGFTLGWYAMGWYRQAPGKERELVAAISRSGGSTYYADSVKGRFTISRDNAKNTVYLQMNCLKPEDTGVYYCAAEVNYAGRAVWSYYWGQGTQVTVSW ... high polyreactivity
QVQLVESGGGLVQAGGSLRLSCAASGFTFIVNPMGWYRQAPGKERELVAAISWNGGSTYYADSVKGRFTISRDNAKNTVYLQMNSLKPEDTAVYYCAVLYRSEYVWGQGTQVTVSS ... low polyreactivity
QVQLVESGGGLVQAGGSLRLSCAASGPIFVENAMGRNRPAPGKERELVAAISGGGSTDYADSVKGRFTISRDNAKNTVYLEMNSLKPVYTAVYFCNARQVFTTAGGEMDYWGQGTQVTVSS ... low polyreactivity

Q: If you can, please state the reported polyreactivity (PSR sort gate) value of QVQLVESGGGLVQAGGSLRLSCAASGLTFVDYAMGWYRQAPGKERELVAAITSSGGSITYYADSVKGRFTISRDNAKNTVYLQMNSLKPEDTAVYYCNADYGIYTDSFRGPDYESWGQGTQVTVSS .
Ans: low polyreactivity

Q: If you can, please state the reported polyreactivity (PSR sort gate) value of QVQLVESGGGLVQAGGSLRLSCAASGLTFYYYAMGWYRQAPGKERELVATISSGGNTNYADSVKGRFTISRDNAMNTVYLQMNSLKPEDTAVYYCNADRWFHYYRYNYWGQGTQVTVSS .
Ans: high polyreactivity

Q: If you can, please state the reported polyreactivity (PSR sort gate) value of QVQLVESGGGLVQAGGSLRLSCAASGSTFRRNAMGWYRQAPGKERELVAAIRYSGSSTYYADSVKGRFTISRGNAKNTVYLQMNSLKPEDTAVYYCATVRNNRYKYDYWGQGTQVTVSS .
Ans: high polyreactivity

* * *

Assay: yeast display, Sf9 membrane polyspecificity reagent, FACS + sequencing; frameworks hold sequencing errors
observable: polyreactivity (PSR sort gate)

QVQLVESGGGLVQAGGSLRLSCASSGSILVHYAMGRYRQAPGKERELFAAISRGGSTNYADSVKGRFTISRDNAKNTVYLQMNSLKPEDTAVYFCAARHGQSWQWLEYDYWGHGTQVTVSS ... low polyreactivity
QVQLVESGGGLVQAGGSLRLSCAASGSTFDTNAMGWYRQAPGKERELVATITSIGGSKYADSVKGRFTISRDNAKNTVYLQMNSLIPEDTAVYYCATDYVEIDYDYDYWGQGTQVSVSS ... low polyreactivity
QVQLVESGGGIVQAGGSLRLSCAASGFTFDIYAMGWYRQAPGTERELVATISFTGDTTSYADSVKGRFTISRDNAKNTVYLQMNSLKPEDTAVYYCAADGSYPLSVGRENLHYAEFDYWGQGTQVTVSS ... low polyreactivity

* * *

Assay: yeast display, Sf9 membrane polyspecificity reagent, FACS + sequencing; frameworks hold sequencing errors
observable: polyreactivity (PSR sort gate)

Sample records with polyreactivity (PSR sort gate):
QVQLVESGGGLVQAGGSLRLSCAASGSTFALYAMGWYRQAPGKERELVAVITSGGSTYYADSVKGRFTISRDNAKNTVYLQMNSLKPEDTAVYYCAARRHVRKGPLGYWGQGTQVTLSS ... high polyreactivity
QVQLVESGGGLVQAVGSLRLSCAASGSTLTSYGMGWYRQAPGKERELVAAISRNGGGTYYADSVKGRFTISRDNAKNTVYLQMNSLKPEDTAGYYCAVVRYSSRYDYWGQGTQVTVSS ... high polyreactivity
QVQLVESGGGLVQAGGSLRLSCAASGSIFGVYAMGWYRQAPGKERELVATISRSGAITYYADSVKGRFTISRDNAKNTVYLQMNSLKPEDTAVYYCAADFFSRDWGQGTQVTVSS ... low polyreactivity
QVQLVESGGGLVQAGGSLRLSCAASGLIFGSYAMGWYRQAPGKERELVAAINKSGGSTYYADSVKGRFTISRDNAKNTVYLQMNSLKPEDTAVYYCAKGRSKYYQPGQRDYWGQGTQVTVSS ... high polyreactivity

Q: If you can, please state the reported polyreactivity (PSR sort gate) value of QVQLVESGGGLVQAGGSLGLSCAASGIIFGKYAMGWYRQAPGKERELVASITVDGGTTYYADSVKGLFTISRDNANNTVYLQMNSLKPEDTAVYYCATGVFAELWFDYWPYDYWGQGTQVTVSS .
Ans: high polyreactivity

Q: If you can, please state the reported polyreactivity (PSR sort gate) value of QVQLVESGGGLVQAGGSLRLSCSASGLIFGNYAMGWYRQAPGKERELVAAITSTGITYYADSVKGRFTISRDNAKNTVYLQMNSLKPEDTAVYYCAAASRFHPDRGGYWGQGTQVTVSS .
Ans: low polyreactivity

Q: If you can, please state the reported polyreactivity (PSR sort gate) value of QVQLVESGGGLVQAGGSLRLSCAASGGIFGINAMGWYRQAPWKERELVSAINLSGGRTYYADSVKGRFTISRDNSKNTVYLHMNSLKPEDTAVYYCAAYYGYSLYGHYEYWGQGTQVTVSS .
Ans: high polyreactivity

Q: If you can, please state the reported polyreactivity (PSR sort gate) value of QVQLVESGGGLVQAGGSLRLSCPASGFIYPVYAMGWSRQAPGKERELVAAISRRGGSTYYADSVKGRFTISRDNAKNTVYLQMNSLKPDDTAVYYCAKDGRGDPVKDDYWGLGTQVTVSS .
Ans: high polyreactivity

Q: If you can, please state the reported polyreactivity (PSR sort gate) value of QVQLVESGGGLVQAGGSLSLRCAASGRIFTVYAMVWYRPAPGKEMELVAAISKRDGSTSYADSVKGRFTISRDNAKNTVYLQMNSLKPEDTAVYYCNARNHVQVLFRRDYWGQGTQVTVSS .
Ans: low polyreactivity
